biological target: human mAChR M1 (Homo sapiens); construct: host or cells: CHO-K1 cells (ATCC), stably transfected using Lipofectamine2000; assay: mAChR M1 cell-based functional assay (calcium mobilization), PAM activity: increase in the EC20 acetylcholine response; details: CHO-K1 cells expressing hM1; potentiation of EC20 acetylcholine response
property label: EC50 (nM)

* Cn1ccc(-c2ccc(Cn3cc(C(=O)N[C@H]4CCCC[C@@H]4O)c4nccn4c3=O)c(F)c2)n1 | 96

1. Cn1ccc(-c2ccc(Cn3cc(C(=O)NC4CC5(COC5)C4)c4ncccc4c3=O)c(F)c2)n1
2. Cn1cc(-c2ccc(Cn3cc(C(=O)N[C@H]4CCCCC[C@@H]4O)c4nccn4c3=O)c(F)c2)cn1
3. O=C(N[C@H]1CCCCC[C@@H]1O)c1cn(Cc2ccc(-n3cccn3)cc2)c(=O)c2cccnc12
Rank order required: EC50, descending. Please list each label once, in the requested order.
1, 3, 2

====

molecular target: human mAChR M1 (Homo sapiens); construct: host or cells: CHO-K1 cells (ATCC), stably transfected using Lipofectamine2000; experiment: mAChR M1 cell-based functional assay (calcium mobilization), PAM activity: increase in the EC20 acetylcholine response; conditions: CHO-K1 cells expressing hM1; potentiation of EC20 acetylcholine response
property label: Emax (%)

Below are worked cases with known answers.
- Cc1cc(-c2cc(F)c(Cn3cc(C(=O)N[C@H]4CCCC[C@@H]4O)c4ncccc4c3=O)c(F)c2)ccn1: 46
- COc1cc(-c2cc(F)c(Cn3cc(C(=O)N[C@H]4CCOC[C@@H]4O)c4ncccc4c3=O)c(F)c2)ccc1Cl: 41
- Cn1nccc1-c1ccc(Cn2cc(C(=O)N[C@H]3CCCC[C@@H]3O)c3ncccc3c2=O)c(F)c1: 41

a. Cn1cc2c(-c3cc(F)c(Cn4cc(C(=O)N[C@H]5CCCC[C@@H]5O)c5nccnc5c4=O)c(F)c3)cccc2n1
b. Cn1ccc(-c2ccc(Cn3cc(C(=O)N[C@H]4CCC[C@@H]4O)c4nccnc4c3=O)c(F)c2)n1
Hi, I'm comparing a with b and wondering which one has the bigger number for Emax. Any idea? API: response body contains the label of the selected item.
a
(a: 64%, b: 41%)

A. Cn1cc2c(-c3cc(F)c(Cn4cc(C(=O)NC5CCOCC5)c5nccnc5c4=O)c(F)c3)cccc2n1
B. O=C(N[C@H]1CCOC[C@@H]1O)c1cn(Cc2ccc(-c3cscn3)cc2)c(=O)n2ccnc12
Hi, I'm comparing A with B and wondering which one has the bigger number for Emax. Any idea? API: response body contains the label of the selected item.
B

====

Biological target: human mAChR M1 (Homo sapiens, UniProt P11229)
Construct: host or cells: CHO-K1 cells (ATCC), stably transfected using Lipofectamine2000
Sequence (P11229 1-460): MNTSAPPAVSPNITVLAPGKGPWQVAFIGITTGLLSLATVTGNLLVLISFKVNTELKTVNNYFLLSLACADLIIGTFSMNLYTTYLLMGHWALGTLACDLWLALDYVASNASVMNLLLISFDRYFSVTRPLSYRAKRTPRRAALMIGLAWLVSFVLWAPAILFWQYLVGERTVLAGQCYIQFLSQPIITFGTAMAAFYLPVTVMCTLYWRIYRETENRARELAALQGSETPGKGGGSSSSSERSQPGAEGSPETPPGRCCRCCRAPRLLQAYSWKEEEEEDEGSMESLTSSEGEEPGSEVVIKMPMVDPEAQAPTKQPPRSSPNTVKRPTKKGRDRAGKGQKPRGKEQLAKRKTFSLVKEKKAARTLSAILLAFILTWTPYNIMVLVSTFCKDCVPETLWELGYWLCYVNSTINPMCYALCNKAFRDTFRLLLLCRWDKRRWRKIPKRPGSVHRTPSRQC
Assay: mAChR M1 cell-based functional assay (calcium mobilization), agonist activity upon compound addition
Settings: CHO-K1 cells expressing hM1; relative to the maximum for acetylcholine
property label: Emax

• Cn1cc(-c2ccc(Cn3cc(C(=O)N[C@@H]4CC[C@H]4O)c4occc4c3=O)c(F)c2)cn1 (stereo in doubt) = < 5%
• Cn1cc2c(-c3cc(F)c(Cn4cc(C(=O)N[C@H]5CCC[C@@H]5O)c5nccnc5c4=O)c(F)c3)cccc2n1 = 8%
• O=C(N[C@H]1CCCCC[C@@H]1O)c1cn(Cc2ccc(-c3cscn3)cc2)c(=O)c2cccnc12 = < 5%
• Cn1cc2c(-c3cc(F)c(Cn4cc(C(=O)N[C@H]5CCC[C@@H]5O)c5sccc5c4=O)c(F)c3)cccc2n1 = < 5%
• Cn1ccc(-c2ccc(Cn3cc(C(=O)N[C@H]4CCOC[C@@H]4O)c4nccnc4c3=O)c(F)c2)n1 = 7%
• Cn1nccc1-c1ccc(Cn2cc(C(=O)N[C@H]3CCCC[C@@H]3O)c3ncccc3c2=O)c(F)c1 = < 5%

What value of Emax has been recorded for this entry: Cn1cc(-c2ccc(Cn3cc(C(=O)NC4CCOCC4)c4ncccc4c3=O)c(F)c2)cn1
< 5%

====

molecular target: human mAChR M1 (Homo sapiens); construct: host or cells: CHO-K1 cells (ATCC), stably transfected using Lipofectamine2000; assay: mAChR M1 cell-based functional assay (calcium mobilization), PAM activity: increase in the EC20 acetylcholine response; details: CHO-K1 cells expressing hM1; potentiation of EC20 acetylcholine response
property label: Emax (%)

Below are worked cases with known answers.
• O=C(N[C@H]1CCCCC[C@@H]1O)c1cn(Cc2ccc(-n3cccn3)cc2)c(=O)c2cccnc12 = 68
• O=C(N[C@H]1CCOC[C@@H]1O)c1cn(Cc2ccc(-c3cscn3)cc2)c(=O)c2cccnc12 = 68
• Cn1cc(-c2ccc(Cn3cc(C(=O)N[C@H]4CCCC[C@@H]4O)c4nccn4c3=O)cn2)cn1 = 63
• Cn1ccc(-c2ccc(Cn3cc(C(=O)N[C@H]4CCCCC[C@@H]4O)c4sccc4c3=O)c(F)c2)n1 = 40
• Cn1ccc(-c2ccc(Cn3cc(C(=O)NC4CCOC(C)(C)C4)c4occc4c3=O)c(F)c2)n1 (centres unmarked) = 24
• Cn1cc2c(-c3cc(F)c(Cn4cc(C(=O)N[C@H]5CCCCC[C@@H]5O)c5nccn5c4=O)c(F)c3)cccc2n1 = 42
• Cn1cc(-c2ccc(Cn3cc(C(=O)N[C@@H]4CC[C@H]4O)c4nccn4c3=O)c(F)c2)cn1 = 72
• Cn1ccc(-c2ccc(Cn3cc(C(=O)N[C@H]4CCCC[C@@H]4O)c4ncn(C)c4c3=O)c(F)c2)n1 = 65
• Cn1cc2c(-c3cc(F)c(Cn4cc(C(=O)N[C@H]5CCOC[C@@H]5O)c5nccnc5c4=O)c(F)c3)cccc2n1 = 72
• O=C(N[C@H]1CCC[C@@H]1O)c1cn(Cc2ccc(-n3cccn3)cc2)c(=O)c2ccoc12 = 34

A. CC[C@H](C)[C@@H](CO)NC(=O)c1cn(Cc2c(F)cc(-c3cccc4nn(C)cc34)cc2F)c(=O)c2nccnc12
B. Cn1ccc(-c2ccc(Cn3cc(C(=O)N[C@H]4CCOC[C@@H]4O)c4sccc4c3=O)c(F)c2)n1
C. Cn1cc(-c2ccc(Cn3cc(C(=O)N[C@H]4CCC[C@@H]4O)c4ncccc4c3=O)c(F)c2)cn1
Rank order required: Emax, descending. Please list each label once, in the requested order.
C, A, B

====

Target: human mAChR M1 (Homo sapiens, UniProt P11229)
Construct: host or cells: CHO-K1 cells (ATCC), stably transfected using Lipofectamine2000
Sequence (P11229 1-460): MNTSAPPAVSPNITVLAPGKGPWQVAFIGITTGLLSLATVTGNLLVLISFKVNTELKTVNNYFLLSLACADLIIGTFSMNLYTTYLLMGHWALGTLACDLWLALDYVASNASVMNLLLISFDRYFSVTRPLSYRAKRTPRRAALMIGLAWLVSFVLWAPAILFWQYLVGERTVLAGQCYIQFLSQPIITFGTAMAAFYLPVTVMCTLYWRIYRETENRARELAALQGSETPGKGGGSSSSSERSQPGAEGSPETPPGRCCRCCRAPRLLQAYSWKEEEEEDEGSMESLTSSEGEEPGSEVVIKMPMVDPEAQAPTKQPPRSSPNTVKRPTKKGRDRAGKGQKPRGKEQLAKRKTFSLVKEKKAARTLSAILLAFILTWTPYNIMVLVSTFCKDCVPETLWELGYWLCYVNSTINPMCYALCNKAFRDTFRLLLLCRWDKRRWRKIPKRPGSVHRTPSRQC
Experiment: mAChR M1 cell-based functional assay (calcium mobilization), PAM activity: increase in the EC20 acetylcholine response
Conditions: CHO-K1 cells expressing hM1; potentiation of EC20 acetylcholine response
property label: EC50 (nM)

• O=C(N[C@H]1CCCCC[C@@H]1O)c1cn(Cc2ccc(-n3cccn3)cc2)c(=O)n2ccnc12 [Compound B16] = 520

P. Cn1ccc(-c2ccc(Cn3cc(C(=O)N[C@H]4CCC[C@@H]4O)c4nccn4c3=O)c(F)c2)n1 [Compound B3]
Q. O=C(N[C@H]1CCC[C@@H]1O)c1cn(Cc2ccc(-n3cccn3)cc2)c(=O)n2ccnc12 [Compound B14]
Given the two records P and Q , choose the one whose EC50 value is lower. API: response body contains the label of the selected item.
P
